target_or_test_system: Peptidyl-prolyl cis-trans isomerase NIMA-interacting 1 (Homo sapiens) (UniProt Q13526)
Sequence (Q13526 whole entry, looked up): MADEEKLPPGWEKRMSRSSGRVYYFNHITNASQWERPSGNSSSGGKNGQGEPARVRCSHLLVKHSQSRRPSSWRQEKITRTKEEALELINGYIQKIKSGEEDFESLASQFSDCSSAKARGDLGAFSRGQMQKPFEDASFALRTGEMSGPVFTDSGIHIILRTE
procedure_text: qHTS Validation Assay to Find Inhibitors of Pin1 (AID 504536);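 also: 0% = full Pin1 enzyme wells and -100% = no-enzyme wells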
applied_conditions: Pin1 fluorescence polarization peptide binding assay; series mostly up to 57.5 µM
Records with an inconclusive call do not appear. Active and inactive are the calls of the source. Calls follow the shape of the dose curve; as a rule, active = well fitted inhibition curve with a large enough effect in the polarisation, with a control signal flat (not every such curve was filed as active); inconclusive = small, poorly fitted or top-dose-only effect, or effect the other way; inactive = flat fitted curve, though single readings scatter; the % refers to the polarisation.
In this exercise, the only acceptable responses are active, inactive

Prompt line: Outcome? C1CCC(N=C(NC23CC4CC(CC(C4)C2)C3)N2CCOCC2)CC1
Response line: inactive

Prompt line: Outcome? CC[N+](CC)(CC)CC
Response line: inactive

* * *

procedure_text: qHTS Assay for Lipid Storage Modulators (AID 1519)
applied_conditions: Drosophila S3 cells, BODIPY lipid droplet/cell ratio, laser cytometry; measured here: lipid channel max response; cells loaded with oleic acid
Records with an inconclusive call do not appear.
Known max response of a selection of molecules
Number in %, nothing else.

CCCCCCCCCCCCCCCC(=O)C(F)(F)F = -5.47
COc1ccc2c3c1O[C@H]1C[C@H](O)C=C[C@@]31CCN(C)C2 = 14.8
COc1cc(OC)c2ccc(=O)oc2c1 = 25.2
O=C(O)CCC/C=C\C[C@@H]1CO[C@H](C(F)(F)F)O[C@@H]1c1ccccc1O = -8.44
OC[C@@H]1O[C@@H](n2cnc3c(N[C@H]4CCC[C@@H]4O)ncnc32)[C@H](O)[C@H]1O = -17.5

Prompt line: Tell us which max response value is on record for C[C@@H]1C[C@@H]2[C@H]3CCC4=CC(=O)C=C[C@]4(C)[C@]3(F)[C@@H](O)C[C@@]2(C)[C@@]1(O)C(=O)CO
Response line: 2.65

Prompt line: Tell us which max response value is on record for Nc1nc2c(nc(Br)n2[C@@H]2O[C@H]3COP(=O)(O)O[C@H]3[C@@H]2O)c(=O)[nH]1
Response line: -7.98

Prompt line: Tell us which max response value is on record for NC(=O)CCCCn1ccc(NC(N)=NCC(F)(F)F)n1
Response line: 6.79

Prompt line: Tell us which max response value is on record for CCOC(=O)[C@H](N)/C=C(\C)CP(=O)(O)O
Response line: -0.232

Prompt line: Tell us which max response value is on record for N[C@]1(C(=O)O)CCc2cc(P(=O)(O)O)ccc21
Response line: -8.48

* * *

target_or_test_system: Muscarinic acetylcholine receptor M1 (Rattus norvegicus)
procedure_text: qHTS Assay for Antagonists of Acetylcholine Muscarinic M1 Receptor: Measurement of IP-One Response (AID 944); also: nearly all actives have a fitted effect of over 75% in size
applied_conditions: CHO-M1 cells, IP-One HTRF, antagonist mode; series mostly up to 46.1 µM
Records with an inconclusive call do not appear. Active and inactive are the calls of the source. Calls follow the shape of the dose curve; as a rule, active = well fitted inhibition curve with a large enough effect; inconclusive = small, poorly fitted or top-dose-only effect; inactive = no such curve, though single readings can be large or run the other way.
In this exercise, the only acceptable responses are active, inactive

CC(C)=CCC/C(C)=C/CC/C(C)=C/CSc1ccccc1C(=O)O = inactive
CNCC[C@H](Oc1ccccc1OC)c1ccccc1 = active
COC(=O)C1=C(C)NC(C)=C([N+](=O)[O-])[C@H]1c1ccccc1C(F)(F)F = inactive
COc1cc2nc(N3CCN(C(=O)[C@H]4CCCO4)CC3)nc(N)c2cc1OC = inactive
C[C@H](N=C(NC#N)Nc1ccncc1)C(C)(C)C = inactive

We next turn to a different compound, shown below.
Prompt line: Outcome? C[C@]12CC3CC(N)(C1)C[C@@](C)(C3)C2
Response line: inactive

* * *

Tested on: Es-2
procedure_text: Primary qHTS to identify gynecologic anti-cancer compounds using libraries of approved drugs and bioactive compounds (AID 1345084); also: % is scaled to controls: 0 for no effect and ±100 for the full control effect; nearly all actives have a fitted effect of over 55% in size
applied_conditions: Gynecologic cancer cell panel viability, ATPlite luminescence, 48 h; series mostly up to 57.5 µM
Records with an inconclusive call do not appear. Active and inactive are the calls of the source. Calls follow the shape of the dose curve; as a rule, active = well fitted cell-killing curve with a large enough effect; inconclusive = small, poorly fitted or top-dose-only effect, or effect the other way; inactive = flat fitted curve, though single readings scatter.
In this exercise, the only acceptable responses are 1 for active, -1 for inactive

N#Cc1c[nH]c2c(C(=O)N3CCN(CCc4ccc(F)cc4)CC3)cccc12 = -1
O=[N+]([O-])c1ccc(-[n+]2nc(-c3ccccc3)nn2-c2ccc(I)cc2)cc1 = -1
CC(C)[C@@H](C)/C=C/[C@@H](C)[C@H]1CC[C@H]2C3=CC=C4C[C@@H](O)CC[C@]4(C)C3=CC[C@]12C = -1
C=C1C(=O)O[C@@H]2[C@H]1[C@H](O)C[C@]1(C)[C@@H](O)CC=C(C)[C@@H]21 = -1
Cc1ccc(CCCO)c(NCc2ccc3nc(NCCCN4CCOCC4)n(Cc4nc(C)ccc4O)c3c2)c1 = -1

We next turn to a different compound, shown below.
Prompt line: Outcome? Cc1cc(CN)cc(C)c1NC(=O)c1ccc(-c2cc(Cl)ccc2Cl)o1
Response line: -1

* * *

Test system: Zika virus NS2B-NS3 protease
procedure_text: Primary screen GU AMC qHTS for Zika virus inhibitors (AID 1347154);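 also: 0% = no-inhibitor control and -100% = no-enzyme control; nearly all actives have a fitted effect of over 70% in size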
applied_conditions: Zika NS2B-NS3 unlinked protease, AMC fluorogenic substrate; series mostly up to 54.1 µM
Records with an inconclusive call do not appear. The source made the active and inactive calls. Calls follow the shape of the dose curve; as a rule, active = well fitted inhibition curve with a large enough effect; inconclusive = small, poorly fitted or top-dose-only effect; inactive = flat fitted curve, though single readings scatter.
quantity_kind: activity change, negative = inhibition

COC(=O)/C=C/c1ccc(C(=O)NCC(=O)N[C@@H](CCC(=O)OC)C(=O)N[C@@H](CC(C)C)C(N)=O)cc1 = inactive
CS(=O)(=O)Nc1c(O)ccc2c1CCCC2C1=NCCN1 (configuration not stated) = inactive
Nc1ncnc2c1ncn2[C@@H]1O[C@H](COP(=O)(O)OP(=O)(O)CP(=O)(O)O)[C@@H](O)[C@H]1O = inactive
NC(N)=Nc1ccc(Cl)cc1 = inactive
COc1ccccc1C1(O)CCN(CCCn2c3ccccc3c3ccccc32)CC1 = inactive
O=C1C(Nc2ccccc2)=CC(=O)c2ncccc21 = inactive
CC(=Nc1ccccc1N)c1c(C)cc(=O)n(O)c1O = inactive
O=c1nc2ccccc2c2n1CC(CN1CCN(c3ccccc3)CC1)N2 (configuration not stated) = inactive
C[C@H](N)CCP(=O)(O)O = inactive
Cc1ccc(/C(=C/CN2CCCC2)c2ccccn2)cc1 = inactive

Prompt line: Fetch value of activity change, negative = inhibition on Zika virus NS2B-NS3 protease for CC(C)[C@@H]1NC(=O)[C@H](Cc2ccccc2)NC(=O)[C@@H](CC(=O)O)NC(=O)CNC(=O)[C@H](CCCNC(=N)N)NC1=O .
Response line: inactive

Prompt line: Fetch value of activity change, negative = inhibition on Zika virus NS2B-NS3 protease for NC(=O)CCCCn1ccc(NC(N)=NCC(F)(F)F)n1 .
Response line: inactive

Prompt line: Fetch value of activity change, negative = inhibition on Zika virus NS2B-NS3 protease for O=C(O)Cc1cc2ccccc2nc1C(=O)O .
Response line: inactive

Prompt line: Fetch value of activity change, negative = inhibition on Zika virus NS2B-NS3 protease for O=[N+]([O-])c1ccc2cn[nH]c2c1 .
Response line: inactive

Prompt line: Fetch value of activity change, negative = inhibition on Zika virus NS2B-NS3 protease for COc1cccc(NC(=O)/C=C\c2ccc(Cl)cc2)c1 .
Response line: inactive

Prompt line: Fetch value of activity change, negative = inhibition on Zika virus NS2B-NS3 protease for CCCCC/C=C\C/C=C\C/C=C\C/C=C\CCCC(=O)O[C@H](COCCCCCCCCCCCCCCCC)COP(=O)([O-])OCC[N+](C)(C)C .
Response line: 13.2% [at 6.83 µM] (inactive)

Prompt line: Fetch value of activity change, negative = inhibition on Zika virus NS2B-NS3 protease for O=S(=O)(c1cccc2cnccc12)N1CCNCC1 .
Response line: inactive

* * *

Known activity, negative = inhibition of a selection of compounds
procedure_text: Stat Signaling Pathway (AID 446);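 also: ME-180 cervical cancer cells given 40 pM IL-6 alongside compound; SIE-controlled beta-lactamase reporter measured as 460/530 nm FRET emission ratio; % is scaled to controls: 0 for no effect and ±100 for the full control effect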
applied_conditions: ME-180 (cervical carcinoma) SIE beta-lactamase reporter, IL-6 stimulated, 5 h; at 7.69 µM (top of the series)
Records with an inconclusive call do not appear.
Number in %, nothing else.

COC(=O)[C@@H]1[C@@H]2C[C@H]3c4[nH]c5ccccc5c4CCN3C[C@@H]2CC[C@@H]1O = 0.353

Prompt line: Tell us which activity, negative = inhibition value is on record for c1csc(CNc2ncnc3ccc(-c4ccc5c(c4)OCO5)cc23)c1
Response line: -12.1

Prompt line: Tell us which activity, negative = inhibition value is on record for C[C@@H](C[C@H](N)C(=O)O)C(=O)O
Response line: 15.7

Prompt line: Tell us which activity, negative = inhibition value is on record for CN(C)C/C=C(\c1ccc(Br)cc1)c1cccnc1
Response line: 3.29

Prompt line: Tell us which activity, negative = inhibition value is on record for NCCC[C@@H](N)C(=O)O
Response line: 1.44

* * *

Test system: CASKI
procedure_text: Primary qHTS to identify gynecologic anti-cancer compounds using libraries of approved drugs and bioactive compounds (AID 1345084); also: % is scaled to controls: 0 for no effect and ±100 for the full control effect; nearly all actives have a fitted effect of over 55% in size
applied_conditions: Gynecologic cancer cell panel viability, ATPlite luminescence, 48 h; series mostly up to 57.5 µM
Results filed as inconclusive are left out. The source made the active and inactive calls. Calls come from the whole dose curve; as a rule, active = well fitted cell-killing curve with a large enough effect; inconclusive = small, poorly fitted or top-dose-only effect, or effect the other way; inactive = flat fitted curve, though single readings scatter.
quantity_kind: outcome

As a guide, the following entries are already answered.
CC(=O)N1CCN([C@H]2CCN(C(=O)N(C)[C@H](C)c3cc(C(F)(F)F)cc(C(F)(F)F)c3)[C@@H](c3ccc(F)cc3C)C2)CC1 = inactive
COc1ccc(C(=O)N(CCC(C)C)Cc2nc(C)c(C)n2Cc2ccccc2C)c(OC)c1 = inactive
CCNC(=O)[C@@H]1CCCN1C(=O)[C@H](CCCN=C(N)N)NC(=O)[C@H](CC(C)C)NC(=O)[C@@H](CC(C)C)NC(=O)[C@H](Cc1ccc(O)cc1)NC(=O)[C@H](CO)NC(=O)[C@H](Cc1c[nH]c2ccccc12)NC(=O)[C@H](Cc1cnc[nH]1)NC(=O)[C@@H]1CCC(=O)N1 = inactive
CC1=CC(=O)[C@@]2(C(C)C)C[C@@H]12 = inactive

Prompt line: Tell us which outcome value is on record for CNc1ccc([N+](=O)[O-])cc1-n1cnc(-c2ccc(C(F)(F)F)cc2)c1
Response line: inactive

Prompt line: Tell us which outcome value is on record for N#CCC(C1CCCC1)n1cc(-c2ncnc3[nH]ccc23)cn1 (configuration not stated)
Response line: inactive

Prompt line: Tell us which outcome value is on record for C[C@@H](CN1CCC(n2c(=O)[nH]c3cc(Cl)ccc32)CC1)NC(=O)c1ccc2ccccc2c1
Response line: inactive
